Test system: cultured nerve cells (cerebral cortex)
Assay: cells
Format: cell-based, Wistar rat
Settings: Rattus norvegicus, Cerebral cortex neuron, 24 h, read-out: ED50
pEC50: −log10 of the molar value.
VALUE_KIND: pEC50

In [3]: df
Out[3]:
                               smiles_entry  value_observed
0  O=C(/C=C/c1cccc(C(F)(F)F)c1)N(CC1CCCCC1)[C@@H]1CC[C@@]2(O)[C@H]3Cc4ccc(O)c5c4[C@@]2(CCN3CC2CC2)[C@H]1O5            7.00
1  Cc1cccc(/C=C/C(=O)N(CC(C)C)[C@@H]2CC[C@@]3(O)[C@H]4Cc5ccc(O)c6c5[C@@]3(CCN4CC3CC3)[C@H]2O6)c1            6.18
2  CC(C)CN(C(=O)/C=C/c1cccc(C(F)(F)F)c1)[C@@H]1CC[C@@]2(O)[C@H]3Cc4ccc(O)c5c4[C@@]2(CCN3CC2CC2)[C@H]1O5            6.51
3  CN(C(=O)/C=C/c1cccc(F)c1)[C@@H]1CC[C@@]2(O)[C@H]3Cc4ccc(O)c5c4[C@@]2(CCN3CC2CC2)[C@H]1O5            4.91
4  CC(=O)Oc1ccc2c3c1O[C@H]1[C@H](N(C)C(=O)/C=C/c4ccccc4)CC[C@@]4(O)[C@@H](C2)N(CC2CC2)CC[C@]314            4.22
5  CN(C(=O)/C=C/c1cccc(OC(F)(F)F)c1)[C@@H]1CC[C@@]2(O)[C@H]3Cc4ccc(O)c5c4[C@@]2(CCN3CC2CC2)[C@H]1O5            5.97

Value source: patent US5972953A
